Measured target: Cyclin-dependent kinase 1 (Homo sapiens) (UniProt P06493)
Sequence (P06493 whole entry, looked up): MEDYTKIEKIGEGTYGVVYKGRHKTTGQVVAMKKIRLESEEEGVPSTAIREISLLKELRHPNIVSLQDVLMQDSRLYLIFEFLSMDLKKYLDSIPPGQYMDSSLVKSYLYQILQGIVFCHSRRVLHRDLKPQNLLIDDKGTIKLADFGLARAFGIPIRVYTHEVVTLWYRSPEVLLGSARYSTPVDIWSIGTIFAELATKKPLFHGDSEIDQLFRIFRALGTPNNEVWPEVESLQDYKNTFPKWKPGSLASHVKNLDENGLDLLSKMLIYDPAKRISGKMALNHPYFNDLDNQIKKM
Test: GSK3 and CDK kinase inhibitor potency, dose response, selectivity assay for GSK3beta inhibitor project, biochemical, selected compounds, dry powder samples (AID 624091)
Condition info: Carna mobility shift kinase assay, LabChip, panel; CDC2/CycB1
Activity calls are given as the source filed them. No rule for the calls is given here.
Labels: 1 (active), 0 (inactive)

[
  {
    "Compound": "Cc1[nH]nc2c1C(c1ccccc1C(F)(F)F)C1=C(CC(C)(C)CC1=O)N2 (stereo unspecified)",
    "Assigned label": 0
  },
  {
    "Compound": "COc1ccccc1C1C2=C(CC(C)(C)CC2=O)Nc2n[nH]c(C(F)(F)F)c21 (stereo unspecified)",
    "Assigned label": 0
  },
  {
    "Compound": "COc1ccccc1[C@H]1C2=C(CC(C)(C)CC2=O)Nc2n[nH]c(C(F)(F)F)c21",
    "Assigned label": 0
  },
  {
    "Compound": "COc1ccccc1[C@@H]1C2=C(CC(C)(C)CC2=O)Nc2n[nH]c(C(F)(F)F)c21",
    "Assigned label": 0
  },
  {
    "Compound": "Cc1[nH]nc2c1[C@H](c1ccccc1C(F)(F)F)C1=C(CC(C)(C)CC1=O)N2",
    "Assigned label": 0
  },
  {
    "Compound": "Cc1[nH]nc2c1[C@@H](c1ccccc1C(F)(F)F)C1=C(CC(C)(C)CC1=O)N2",
    "Assigned label": 1
  }
]

----------
Measured target: UniProt:P24941
Test: GSK3 and CDK kinase inhibitor potency, dose response, selectivity assay for GSK3beta inhibitor project, biochemical, selected compounds, dry powder samples (AID 624091)
Condition info: Carna mobility shift kinase assay, LabChip, panel; CDK2/CycE1
Active and inactive are the calls of the source. No rule for the calls is given here.
Possible outcomes: T = active, F = inactive

[
  {
    "Compound": "COc1ccccc1[C@H]1C2=C(CC(C)(C)CC2=O)Nc2n[nH]c(C(F)(F)F)c21",
    "Assigned label": "F"
  },
  {
    "Compound": "Cc1[nH]nc2c1[C@@H](c1ccccc1C(F)(F)F)C1=C(CC(C)(C)CC1=O)N2",
    "Assigned label": "T"
  },
  {
    "Compound": "Cc1[nH]nc2c1[C@H](c1ccccc1C(F)(F)F)C1=C(CC(C)(C)CC1=O)N2",
    "Assigned label": "F"
  },
  {
    "Compound": "COc1ccccc1C1C2=C(CC(C)(C)CC2=O)Nc2n[nH]c(C(F)(F)F)c21 (stereo unspecified)",
    "Assigned label": "F"
  },
  {
    "Compound": "COc1ccccc1[C@@H]1C2=C(CC(C)(C)CC2=O)Nc2n[nH]c(C(F)(F)F)c21",
    "Assigned label": "F"
  },
  {
    "Compound": "Cc1[nH]nc2c1C(c1ccccc1C(F)(F)F)C1=C(CC(C)(C)CC1=O)N2 (stereo unspecified)",
    "Assigned label": "T"
  }
]

----------
Measured target: Glycogen synthase kinase-3 alpha (Homo sapiens)
Test: GSK3 and CDK kinase inhibitor potency, dose response, selectivity assay for GSK3beta inhibitor project, biochemical, selected compounds, dry powder samples (AID 624091)
Condition info: Carna mobility shift kinase assay, LabChip, panel; GSK3a
Active and inactive are the calls of the source. No rule for the calls is given here.
Outcomes: active, inactive

[
  {
    "Compound": "COc1ccccc1C1C2=C(CC(C)(C)CC2=O)Nc2n[nH]c(C(F)(F)F)c21 (stereo unspecified)",
    "Measured target": "Glycogen synthase kinase-3 alpha (Homo sapiens)",
    "Assigned label": "active"
  },
  {
    "Compound": "COc1ccccc1[C@@H]1C2=C(CC(C)(C)CC2=O)Nc2n[nH]c(C(F)(F)F)c21",
    "Measured target": "Glycogen synthase kinase-3 alpha (Homo sapiens)",
    "Assigned label": "active"
  },
  {
    "Compound": "COc1ccccc1[C@H]1C2=C(CC(C)(C)CC2=O)Nc2n[nH]c(C(F)(F)F)c21",
    "Measured target": "Glycogen synthase kinase-3 alpha (Homo sapiens)",
    "Assigned label": "active"
  },
  {
    "Compound": "Cc1[nH]nc2c1[C@H](c1ccccc1C(F)(F)F)C1=C(CC(C)(C)CC1=O)N2",
    "Measured target": "Glycogen synthase kinase-3 alpha (Homo sapiens)",
    "Assigned label": "inactive"
  },
  {
    "Compound": "Cc1[nH]nc2c1C(c1ccccc1C(F)(F)F)C1=C(CC(C)(C)CC1=O)N2 (stereo unspecified)",
    "Measured target": "Glycogen synthase kinase-3 alpha (Homo sapiens)",
    "Assigned label": "active"
  },
  {
    "Compound": "Cc1[nH]nc2c1[C@@H](c1ccccc1C(F)(F)F)C1=C(CC(C)(C)CC1=O)N2",
    "Measured target": "Glycogen synthase kinase-3 alpha (Homo sapiens)",
    "Assigned label": "active"
  }
]

----------
Measured target: Glycogen synthase kinase-3 beta (Homo sapiens)
Test: GSK3 and CDK kinase inhibitor potency, dose response, selectivity assay for GSK3beta inhibitor project, biochemical, selected compounds, dry powder samples (AID 624091)
Condition info: Carna mobility shift kinase assay, LabChip, panel; GSK3b
Activity calls are given as the source filed them. No rule for the calls is given here.
Outcomes: active, inactive

[
  {
    "Molecule": "Cc1[nH]nc2c1C(c1ccccc1C(F)(F)F)C1=C(CC(C)(C)CC1=O)N2 (stereo unspecified)",
    "Assigned label": "active"
  },
  {
    "Molecule": "Cc1[nH]nc2c1[C@H](c1ccccc1C(F)(F)F)C1=C(CC(C)(C)CC1=O)N2",
    "Assigned label": "inactive"
  },
  {
    "Molecule": "COc1ccccc1C1C2=C(CC(C)(C)CC2=O)Nc2n[nH]c(C(F)(F)F)c21 (stereo unspecified)",
    "Assigned label": "active"
  },
  {
    "Molecule": "COc1ccccc1[C@H]1C2=C(CC(C)(C)CC2=O)Nc2n[nH]c(C(F)(F)F)c21",
    "Assigned label": "active"
  },
  {
    "Molecule": "COc1ccccc1[C@@H]1C2=C(CC(C)(C)CC2=O)Nc2n[nH]c(C(F)(F)F)c21",
    "Assigned label": "active"
  },
  {
    "Molecule": "Cc1[nH]nc2c1[C@@H](c1ccccc1C(F)(F)F)C1=C(CC(C)(C)CC1=O)N2",
    "Assigned label": "active"
  }
]

----------
Measured target: Cyclin-dependent kinase 2 (Homo sapiens)
Test: GSK3 and CDK kinase inhibitor potency, dose response, selectivity assay for GSK3beta inhibitor project, biochemical, selected compounds, dry powder samples (AID 624091)
Condition info: Carna mobility shift kinase assay, LabChip, panel; CDK2/CycA2
Calls of active or inactive are those of the source. No rule for the calls is given here.

[
  {
    "Compound": "Cc1[nH]nc2c1[C@H](c1ccccc1C(F)(F)F)C1=C(CC(C)(C)CC1=O)N2",
    "IC50": "> 10 µM (inactive)"
  },
  {
    "Compound": "Cc1[nH]nc2c1[C@@H](c1ccccc1C(F)(F)F)C1=C(CC(C)(C)CC1=O)N2",
    "IC50": "0.561 µM"
  },
  {
    "Compound": "COc1ccccc1[C@H]1C2=C(CC(C)(C)CC2=O)Nc2n[nH]c(C(F)(F)F)c21",
    "IC50": "> 10 µM (inactive)"
  },
  {
    "Compound": "COc1ccccc1C1C2=C(CC(C)(C)CC2=O)Nc2n[nH]c(C(F)(F)F)c21 (stereo unspecified)",
    "IC50": "inactive"
  },
  {
    "Compound": "COc1ccccc1[C@@H]1C2=C(CC(C)(C)CC2=O)Nc2n[nH]c(C(F)(F)F)c21",
    "IC50": "inactive"
  },
  {
    "Compound": "Cc1[nH]nc2c1C(c1ccccc1C(F)(F)F)C1=C(CC(C)(C)CC1=O)N2 (stereo unspecified)",
    "IC50": "inactive"
  }
]

----------
Measured target: Cyclin-dependent kinase 5 (Homo sapiens) (UniProt Q00535)
Sequence (Q00535 whole entry, looked up): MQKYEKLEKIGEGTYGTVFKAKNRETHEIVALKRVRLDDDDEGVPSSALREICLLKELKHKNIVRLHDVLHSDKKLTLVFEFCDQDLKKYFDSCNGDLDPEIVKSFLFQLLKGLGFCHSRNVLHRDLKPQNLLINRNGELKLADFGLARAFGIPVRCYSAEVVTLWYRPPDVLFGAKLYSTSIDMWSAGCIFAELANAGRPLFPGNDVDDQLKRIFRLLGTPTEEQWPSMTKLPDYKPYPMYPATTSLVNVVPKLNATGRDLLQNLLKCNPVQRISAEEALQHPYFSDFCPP
Test: GSK3 and CDK kinase inhibitor potency, dose response, selectivity assay for GSK3beta inhibitor project, biochemical, selected compounds, dry powder samples (AID 624091)
Condition info: Carna mobility shift kinase assay, LabChip, panel; CDK5/p25
The source made the active and inactive calls. No rule for the calls is given here.
Outcome codes: active, inactive

[
  {
    "Molecule": "Cc1[nH]nc2c1[C@@H](c1ccccc1C(F)(F)F)C1=C(CC(C)(C)CC1=O)N2",
    "Assigned label": "active"
  },
  {
    "Molecule": "Cc1[nH]nc2c1C(c1ccccc1C(F)(F)F)C1=C(CC(C)(C)CC1=O)N2 (stereo not drawn)",
    "Assigned label": "active"
  },
  {
    "Molecule": "Cc1[nH]nc2c1[C@H](c1ccccc1C(F)(F)F)C1=C(CC(C)(C)CC1=O)N2",
    "Assigned label": "inactive"
  }
]
